All values here come from patent US12741974B2.

Tested on: Hs294T (human melanoma)
Experiment: In vitro cytotoxicity test, SRB assay, 72 h incubation with compound
Assay type: cell-based
Details: Hs 294T; Hs294T human melanoma, SRB, 72 h
Procedure: In vitro cytotoxicity tests were performed according to the procedure described below. […] The solvent for further dilutions was a culture medium. The experiments were repeated at least 3 times.
Catalogue of compounds with associated IC50
All answers are understood in nM, so give the number only.

Some compounds with known IC50 results, for comparison:
{"compound": "CC[C@@H](C(=O)[C@@H](C)[C@@H](O)[C@H](C)[C@@H]1O[C@@H]([C@@H](CC)C(=O)O)CC[C@@H]1C)[C@H]1O[C@]2(C=C[C@@H](NC(=O)CCl)[C@]3(CC[C@@](C)([C@H]4CC[C@](O)(CC)[C@H](C)O4)O3)O2)[C@H](C)C[C@@H]1C", "IC50 / nM": 60}
{"compound": "CC[C@@H](C(=O)[C@@H](C)[C@@H](O)[C@H](C)[C@@H]1O[C@@H]([C@@H](CC)C(=O)O)CC[C@@H]1C)[C@H]1O[C@]2(C=C[C@@H](NC(=O)OCC(C)(C)C)[C@]3(CC[C@@](C)([C@H]4CC[C@](O)(CC)[C@H](C)O4)O3)O2)[C@H](C)C[C@@H]1C", "IC50 / nM": 280}
{"compound": "CC[C@@H](C(=O)[C@@H](C)[C@@H](O)[C@H](C)[C@@H]1O[C@@H]([C@@H](CC)C(=O)O)CC[C@@H]1C)[C@H]1O[C@]2(C=C[C@@H](N)[C@]3(CC[C@@](C)([C@H]4CC[C@](O)(CC)[C@H](C)O4)O3)O2)[C@H](C)C[C@@H]1C [(3), C20-aminosalinomycin, reference compound]", "IC50 / nM": 9730}
{"compound": "CC[C@@H](C(=O)[C@@H](C)[C@@H](O)[C@H](C)[C@@H]1O[C@@H]([C@@H](CC)C(=O)O)CC[C@@H]1C)[C@H]1O[C@]2(C=C[C@@H](NC(=O)CCCCl)[C@]3(CC[C@@](C)([C@H]4CC[C@](O)(CC)[C@H](C)O4)O3)O2)[C@H](C)C[C@@H]1C", "IC50 / nM": 70}
{"compound": "CC[C@@H](C(=O)[C@@H](C)[C@@H](O)[C@H](C)[C@@H]1O[C@@H]([C@@H](CC)C(=O)O)CC[C@@H]1C)[C@H]1O[C@]2(C=C[C@@H](NC(=O)c3ccccc3)[C@]3(CC[C@@](C)([C@H]4CC[C@](O)(CC)[C@H](C)O4)O3)O2)[C@H](C)C[C@@H]1C", "IC50 / nM": 20}
{"compound": "C#CCOC(=O)N[C@@H]1C=C[C@]2(O[C@H]([C@@H](CC)C(=O)[C@@H](C)[C@@H](O)[C@H](C)[C@@H]3O[C@@H]([C@@H](CC)C(=O)O)CC[C@@H]3C)[C@@H](C)C[C@H]2C)O[C@@]12CC[C@@](C)([C@H]1CC[C@](O)(CC)[C@H](C)O1)O2", "IC50 / nM": 4.1}
{"compound": "CCCNC(=O)N[C@@H]1C=C[C@]2(O[C@H]([C@@H](CC)C(=O)[C@@H](C)[C@@H](O)[C@H](C)[C@@H]3O[C@@H]([C@@H](CC)C(=O)[O-])CC[C@@H]3C)[C@@H](C)C[C@H]2C)O[C@@]12CC[C@@](C)([C@H]1CC[C@](O)(CC)[C@H](C)O1)O2.[Na+]", "IC50 / nM": 10}
{"compound": "CC[C@@H](C(=O)[C@@H](C)[C@@H](O)[C@H](C)[C@@H]1O[C@@H]([C@@H](CC)C(=O)O)CC[C@@H]1C)[C@H]1O[C@]2(C=C[C@@H](NC(=O)C(C)C)[C@]3(CC[C@@](C)([C@H]4CC[C@](O)(CC)[C@H](C)O4)O3)O2)[C@H](C)C[C@@H]1C", "IC50 / nM": 20}
{"compound": "CC[C@@H](C(=O)[C@@H](C)[C@@H](O)[C@H](C)[C@@H]1O[C@@H]([C@@H](CC)C(=O)O)CC[C@@H]1C)[C@H]1O[C@]2(C=C[C@@H](O)[C@]3(CC[C@@](C)([C@H]4CC[C@](O)(CC)[C@H](C)O4)O3)O2)[C@H](C)C[C@@H]1C", "IC50 / nM": 560}
{"compound": "CC[C@@H](C(=O)[C@@H](C)[C@@H](O)[C@H](C)[C@@H]1O[C@@H]([C@@H](CC)C(=O)O)CC[C@@H]1C)[C@H]1O[C@]2(C=C[C@@H](NC(=O)COC)[C@]3(CC[C@@](C)([C@H]4CC[C@](O)(CC)[C@H](C)O4)O3)O2)[C@H](C)C[C@@H]1C", "IC50 / nM": 60}

IC50 lookup needed for CC[C@@H](C(=O)[C@@H](C)[C@@H](O)[C@H](C)[C@@H]1O[C@@H]([C@@H](CC)C(=O)O)CC[C@@H]1C)[C@H]1O[C@]2(C=C[C@@H](NC(=O)c3ccc(CCl)cc3)[C@]3(CC[C@@](C)([C@H]4CC[C@](O)(CC)[C@H](C)O4)O3)O2)[C@H](C)C[C@@H]1C , thanks. 30
